# Test system: MDA-MB-435 melanoma
# Method Summary: NCI-60 one-dose screen, 48 h
# Measurement Conditions: 10 µM unless noted
Compounds without any hit were thinned out: in the full panel of roughly 83,000, 20% have a hit. Calls of active or inactive are those of the source. How the source made its calls: active means growth percent below 10; inactive means the rest.
The categories you may choose from are active, inactive

Task: Fill in: this test's call for CC1=NCC2NC(=O)NC(C)=C12 (centres undefined) is ___
Output: inactive

Task: Fill in: this test's call for CC(C)(C)c1ccc(C2CC(=O)C3=C(C2)Nc2ccccc2N(C(=O)c2ccccc2Cl)C3c2ccc(F)cc2)cc1 (centres undefined) is ___
Output: active

Task: Fill in: this test's call for CCOc1c(Br)cc(C2C(C(=O)OC)=CN(C)C=C2C(=O)OC)cc1OC is ___
Output: inactive

Task: Fill in: this test's call for O=c1oc2ccc(Cl)cc2c(=O)n1-c1cc(C(F)(F)F)cc(C(F)(F)F)c1 is ___
Output: active

Task: Fill in: this test's call for CCOc1ccc(-c2nonc2NC(=O)c2cccc(C)c2)cc1OCC is ___
Output: inactive

Task: Fill in: this test's call for COc1cc(-c2c3c(cn2S(=O)(=O)c2ccccc2)-c2nc(N)sc2CC3)cc(OC)c1OC is ___
Output: active

Task: Fill in: this test's call for O=c1oc2ccc(F)cc2c(=O)n1-c1ccc(Br)cc1F is ___
Output: active

Task: Fill in: this test's call for COc1ccc(Cn2cc(Cn3c(=O)c(-c4nc5ccccc5[nH]4)cc4ccccc43)nn2)c(OC)c1OC is ___
Output: active

Task: Fill in: this test's call for COC(=O)[C@H]1CCCN1C(=O)[C@H]1CCCN1C(=O)[C@H](Cc1c[nH]c2ccccc12)NC(=S)Nc1cc(C(F)(F)F)cc(C(F)(F)F)c1 is ___
Output: inactive

----------
# Test system: SNB-19 CNS
# Method Summary: NCI-60 one-dose screen, 48 h (100 = growth as untreated, 0 = no growth, -100 = all killed)
# Measurement Conditions: 10 µM unless noted
# Procedure: Growth inhibition of the SNB-19 human tumor cell line is measured as a screen for anti-cancer activity. Cells are grown in 96 well plates and exposed to the test compound for 48 hours. Compounds are tested at a single concentration, which is 10^-5 M for most compounds. The reported endpoint is percent growth (GI% or GIPRCNT), where numbers from 0 - 100% represent growth inhibition, and numbers from -100% - 0 represent cell death. For example, a value of 40 represents 60% growth inhibition. […]
This is part of a sample that, as a whole, favours compounds with a hit. Of some 83,000 tested, about 20% had one in any assay.
Note to self: growth under 90% means true, ties and anything higher get false.

Task: Below 90% on growth? Entry O=C(Nc1ccc(-c2nc3cc4ccccc4cc3[nH]2)cc1)c1cccc(Br)c1
Output: true

Task: Below 90% on growth? Entry COc1ccc(-c2nc(N3CCN(C(=O)C4CCCCC4)CC3)c3c4c(sc3n2)CCCC4)cc1
Output: true

Task: Below 90% on growth? Entry COc1cc2cc3c(=O)n4c(cc5cc(OC)ncc54)c(=O)n3c2cn1
Output: false

Task: Below 90% on growth? Entry COc1ccc(-c2cn3c(C(=O)Nc4ccccc4Cl)c(-c4ccccc4)c4c3n2CCCC4)cc1
Output: false

Task: Below 90% on growth? Entry Nc1n[nH]c2ccc([C@@H]3Nc4ccc5[nH]ncc5c4[C@H]4[C@H]5CCC(C5)[C@H]43)cc12
Output: true

Task: Below 90% on growth? Entry Cc1ccc(C)c(-c2csc(Nc3ccc(C)c(C)c3)n2)c1
Output: true

Task: Below 90% on growth? Entry NNC(=O)CNC(=O)Nc1n[nH]c(=S)s1
Output: false

Task: Below 90% on growth? Entry COc1nccc2cc3c(=O)n4c(cc5ccccc54)c(=O)n3c12
Output: false

Task: Below 90% on growth? Entry Cc1ccc(S(=O)c2ccc([N+](=O)[O-])c3nonc23)cc1 (configuration not stated)
Output: false

Task: Below 90% on growth? Entry C=CCN1C(=O)/C(=c2\sc3n(c2=O)NC2C(N=3)N(CC)C(=O)N2CC)c2ccccc21 (configuration not stated)
Output: true

Task: Below 90% on growth? Entry COc1ccc(CCN2C(=O)CCSC2=S)cc1OC
Output: false

Task: Below 90% on growth? Entry Cc1cc(OC(=O)c2ccc([N+](=O)[O-])cc2)nc2[nH]c(=O)sc12
Output: false

Task: Below 90% on growth? Entry CCCCCCc1cc2cc(-c3nc4ccccc4[nH]3)c(=Nc3ccccc3C)oc2cc1O
Output: true

Task: Below 90% on growth? Entry CN1CCN(Cc2ccc(C(=O)Nc3cncc(C#Cc4cnc5cccnn45)c3)cc2C(F)(F)F)CC1
Output: false

Task: Below 90% on growth? Entry CCCN1C(=O)N(CCC)C2C1NN=c1s/c(=C3\C(=O)N(C(C)C)c4ccccc43)c(=O)n12 (configuration not stated)
Output: true

Task: Below 90% on growth? Entry O=c1oc2ccc(F)cc2c(=O)n1-c1ccc(F)cc1F
Output: true

Task: Below 90% on growth? Entry CCc1ccc(CNCC(O)c2ccccc2)cc1 (configuration not stated)
Output: true

Task: Below 90% on growth? Entry CC(=Nc1ccccc1)C1=C(O)C(Cc2ccc(F)cc2)NC1=O (configuration not stated)
Output: true

Task: Below 90% on growth? Entry O=C1c2cc(Br)ccc2Oc2cc([N+](=O)[O-])ccc2N1c1ccc(I)cc1F
Output: false

Task: Below 90% on growth? Entry CCOc1ccc2c(c1)CN(Cc1ccc(Cl)cc1)CO2
Output: true

Task: Below 90% on growth? Entry CCOc1cc2c(cc1OCC)C(c1cc(C)c(O)c(C)c1)NCC2 (configuration not stated)
Output: false

Task: Below 90% on growth? Entry O=C(Nc1ccc(I)cc1F)c1cc(Br)ccc1O
Output: true

Task: Below 90% on growth? Entry S=C1NC2(c3ccccc3)CCC(=S)N2c2ccccc21 (configuration not stated)
Output: false

Task: Below 90% on growth? Entry CSc1nc2c(c(=O)[nH]1)N=C1c3ccccc3C(=O)C1C(c1ccc(F)cc1)N2 (configuration not stated)
Output: true

Task: Below 90% on growth? Entry CC[C@@H](C)[C@H](NC(=O)Cn1cc(CNC(=O)[C@@H](NC(=O)OCc2ccccc2)C(C)C)nn1)C(=O)O
Output: false

Task: Below 90% on growth? Entry Cc1c(-c2noc(-c3ccc([N+](=O)[O-])cc3)n2)no[n+]1[O-]
Output: false

Task: Below 90% on growth? Entry COc1ccc2c(c1)C=C1CSCC3=Cc4cc(OC)ccc4OC13O2
Output: true

Task: Below 90% on growth? Entry Cn1cc([C@@H]2Nc3ccc4[nH]ncc4c3[C@H]3[C@H]4CCC(C4)[C@H]32)c(C(F)(F)F)n1
Output: true

Task: Below 90% on growth? Entry Cc1nc(Nc2ccccn2)sc1C(=O)/C=C/c1ccc(Cl)cc1
Output: true

Task: Below 90% on growth? Entry O=C(N/N=C/c1ccccc1Cl)C(=O)Nc1cccc(C(F)(F)F)c1
Output: false

Task: Below 90% on growth? Entry O=C(CCc1nnc2sc(COc3ccccc3)nn12)c1nc2ncccc2[nH]1
Output: false

Task: Below 90% on growth? Entry CCOc1ccccc1CN1CCc2nc3cc(C(C)(C)C)[nH]n3c(=O)c2C1
Output: false

Task: Below 90% on growth? Entry O=c1oc2ccc(Cl)cc2c(=O)n1-c1cc(C(F)(F)F)cc(C(F)(F)F)c1
Output: true

Task: Below 90% on growth? Entry Clc1ccc(Nc2nnc(-c3ccc4c(c3)OCO4)o2)cc1
Output: false
